The origin of these recorded values is ChEMBL document CHEMBL1144737.

System: Fusarium oxysporum
Experiment: Antifungal activity against Fusarium oxysporum at 50 ug/ml by poison plate technique
Format: functional
// values below are reported inhibition at 50 µg/mL
Give your result in % as a bare value.

Here is how some compounds turned out for inhibition at 50 µg/mL.
{"compound": "CCOC(=O)C[S+]([O-])c1nnc(-c2cc(OC)c(OC)c(OC)c2)o1 (stereo unspecified)", "assay_target": "Fusarium oxysporum", "inhibition at 50 µg/mL / %": 1.47}
{"compound": "COc1cc(-c2nnc([S+]([O-])Cc3cccc(F)c3)o2)cc(OC)c1OC (stereo unspecified)", "assay_target": "Fusarium oxysporum", "inhibition at 50 µg/mL / %": -0.88}
{"compound": "COc1cccc(C[S+]([O-])c2nnc(-c3cc(OC)c(OC)c(OC)c3)o2)c1 (stereo unspecified)", "assay_target": "Fusarium oxysporum", "inhibition at 50 µg/mL / %": 30.5}

Give the reported value of inhibition at 50 µg/mL for this record: COc1cc(-c2nnc([S+]([O-])Cc3ccccc3)s2)cc(OC)c1OC (stereo unspecified)
15.5

Give the reported value of inhibition at 50 µg/mL for this record: COc1cc(-c2nnc([S+]([O-])Cc3ccc(F)cc3)s2)cc(OC)c1OC (stereo unspecified)
2.54

Give the reported value of inhibition at 50 µg/mL for this record: COc1cc(-c2nnc([S+]([O-])Cc3ccccc3Cl)o2)cc(OC)c1OC (stereo unspecified)
7.04
